System: MDA-MB-435
Where a SMILES comes first, the peptide text is derived from it. The star is where a group is joined. Boc = CC(C)(C)OC(=O)*
Output constraint: value belongs to active, inactive

Ask: Fill in: this test's call for O=C(NNc1ccccc1)C(=O)NNc1ccccc1 is ___
Result: inactive

Ask: Fill in: this test's call for CC(C)OC(=O)[C@H](C)NP(=O)(OC[C@H]1O[C@@H](n2ccc(=O)[nH]c2=O)[C@](C)(F)[C@@H]1O)Oc1ccccc1 (stereo partly specified) is ___
Result: inactive

Ask: Fill in: this test's call for CCN(Cc1ccc(F)cc1)c1ccc(CO)c(Br)c1 is ___
Result: inactive

Ask: Fill in: this test's call for CCOC(=O)/C=C/c1ccc(C#Cc2ccccc2)cc1 is ___
Result: inactive

Ask: Fill in: this test's call for COC(=O)C(C)NC(=O)C(CCSC)NC(=O)C(Cc1ccccc1)NC(=O)OC(C)(C)C (stereo not drawn) (Boc-Phe-Met-Ala-OMe; configuration not given here) is ___
Result: inactive

Ask: Fill in: this test's call for C#Cc1nc(Nc2cc(C)[nH]n2)c2ccccc2n1 is ___
Result: active

Ask: Fill in: this test's call for COc1cc(C2CC(c3cccc(Nc4ccncc4)c3)=NN2c2ccc(Cl)cc2)cc(OC)c1OC (stereo unspecified) is ___
Result: inactive

Ask: Fill in: this test's call for O=C1c2cc3c(cc2-c2c1c1cc(Cl)c(Cl)cc1c(=O)n2C[C@H](O)CO)OCO3 is ___
Result: active

Ask: Fill in: this test's call for CN1CC[C@@H](c2c(O)cc(O)c3c(=O)cc(-c4ccc(C(F)(F)F)cc4Cl)oc23)[C@@H]1CO is ___
Result: inactive

Ask: Fill in: this test's call for O=[N+]([O-])c1ccc(CI)cc1 is ___
Result: inactive

Ask: Fill in: this test's call for COc1ccc(-c2cc(/C=C/C(=O)c3ccc(OC)c(OC)c3)[nH]n2)cc1 is ___
Result: inactive

====

Test system: BT-549 breast
Assay: NCI tumour cell line growth inhibition, 48 h
OBSERVABLE: TGI

Log: BT-549 breast, molecule C=CCc1ccc(O)c(-c2ccc(O)c(CC=C)c2)c1 , TGI = 27.5 µM

Log: BT-549 breast, molecule C=CCN(C(=O)CNC(=O)C(F)(F)F)c1cc(OCc2ccccc2)c2c(c1)c(C)cn2S(=O)(=O)c1ccccc1 , TGI = > 100 µM

Log: BT-549 breast, molecule CC1=C(/C=C/C(C)=C/C=C/C(C)=C/C(=O)OC2CC(n3cc(F)c(=O)[nH]c3=O)OC2CO)C(C)(C)CCC1 (stereo unspecified) , TGI = 22.3 µM

Log: BT-549 breast, molecule COc1ccc(C2=C(c3ccc(OC)cc3)C(=O)N3CCCC3C2)cc1 (stereo unspecified) , TGI = > 89.8 µM

Log: BT-549 breast, molecule COC(=O)c1ccc2c(c1)/C(=C\c1cc(Br)c(O)c(Br)c1)C(=O)N2 , TGI = > 25 µM

Log: BT-549 breast, molecule C[C@@]12CCC[C@@](C)(C(=O)O)C1CC[C@]13CC(=O)[C@](CO)(C1)[C@@H](O)CC32 (stereo partly specified) , TGI = > 100 µM
